Recorded Plant response rating, Morningglory values for a group of compounds are listed next.
System: morningglory (Ipomoea spp.)
Protocol notes: Test A pre-/postemergence: morningglory
Type: in vivo
Test conditions: Preemergence, 500 g ai/ha; 0 to 100 scale (0 no effect, 100 complete control)

- Compound: "Cc1nn(-c2ccc(F)cc2)nc1Oc1cccc(C(F)(F)F)n1 [Compound 127]"
  Plant response rating, Morningglory: 0
- Compound: "COc1nn(-c2ccc(C(F)(F)F)cc2)nc1Cc1ccnc(C(F)F)c1 [Compound 138]"
  Plant response rating, Morningglory: 90
- Compound: "CC(C)Oc1nn(-c2ccc(C(F)(F)F)cc2)nc1Cc1ccnc(C(F)(F)F)c1 [Compound 192]"
  Plant response rating, Morningglory: 10
- Compound: "CCCc1nn(-c2ccc(F)cc2F)nc1Oc1ccnc(C(F)(F)F)c1 [Compound 179]"
  Plant response rating, Morningglory: 70
- Compound: "CCc1nn(-c2ccc(C(F)(F)F)cc2)nc1Cn1cnc(C(F)(F)F)c1Cl [Compound 121]"
  Plant response rating, Morningglory: 0
- Compound: "CCc1nn(-c2ccc(C(F)(F)F)cc2)nc1Oc1ccnc(C(F)(F)F)c1 [Compound 169]"
  Plant response rating, Morningglory: 40
- Compound: "CCc1nn(-c2ccc(C(F)(F)F)cc2)nc1Cc1ccnc(C(F)(F)F)c1 [Compound 155]"
  Plant response rating, Morningglory: 90
- Compound: "FC(F)(F)c1cccc(-n2nc(Oc3ccnc(C(F)(F)F)c3)c(C3CC3)n2)c1 [Compound 200]"
  Plant response rating, Morningglory: 10

* * *

System: foxtail, giant (giant foxtail, Setaria faberii)
Protocol notes: Test A pre-/postemergence: foxtail, giant
Assay type: in vivo
Test conditions: Postemergence, 500 g ai/ha; visual rating on 0 to 100 scale (0 no effect, 100 complete control), approximately ten days
Recorded Foxtail, Giant plant response rating values for a group of molecules are listed next.

- Molecule: "Cc1nn(-c2ccc(C(F)(F)F)cc2)nc1Nc1cccc(C(F)(F)F)c1 [Compound 69]"
  Tested system: "foxtail, giant (giant foxtail, Setaria faberii)"
  Foxtail, Giant plant response rating: 10
- Molecule: "COc1nn(-c2ccc(C(F)(F)F)cc2)nc1C(C)(O)c1ccnc(C(F)(F)F)c1 (stereo not shown) [Compound 79]"
  Tested system: "foxtail, giant (giant foxtail, Setaria faberii)"
  Foxtail, Giant plant response rating: 10
- Molecule: "Cc1ccc(-n2nc(C)c(C(=O)c3cccc(C(F)(F)F)c3)n2)cc1 [Compound 44]"
  Tested system: "foxtail, giant (giant foxtail, Setaria faberii)"
  Foxtail, Giant plant response rating: 30
- Molecule: "Cc1nn(-c2ccc(C(F)(F)F)cn2)nc1Oc1ccnc(C(F)(F)F)c1 [Compound 23]"
  Tested system: "foxtail, giant (giant foxtail, Setaria faberii)"
  Foxtail, Giant plant response rating: 90

* * *

Recorded Plant response rating, Arrowleaf Sida values for a group of molecules are listed next.
System: arrowleaf sida (Sida rhombifolia)
Protocol notes: Test F pre-/postemergence: arrowleaf sida
Assay type: in vivo
Test conditions: Preemergence, 31 g ai/ha; scale 0 to 100, 0 no effect, 100 complete control
Assay endpoint: Plant response rating, Arrowleaf Sida

- Smiles: "CCc1nn(-c2ccc(F)c(F)c2)nc1Oc1ccnc(C(F)(F)F)c1"
  Assay endpoint: "Plant response rating, Arrowleaf Sida"
  Quantitative result: 0
- Smiles: "CCc1nn(-c2ccc(F)cc2)nc1Cc1ccnc(C(F)(F)F)c1"
  Assay endpoint: "Plant response rating, Arrowleaf Sida"
  Quantitative result: 0
- Smiles: "CCc1nn(-c2ccc(C(F)(F)F)cc2)nc1Oc1ccnc(C(F)(F)F)c1"
  Assay endpoint: "Plant response rating, Arrowleaf Sida"
  Quantitative result: 0
- Smiles: "CCOc1nn(-c2ccc(F)cc2)nc1Cc1ccnc(C(F)(F)F)c1"
  Assay endpoint: "Plant response rating, Arrowleaf Sida"
  Quantitative result: 15
